Assay: yeast display, Sf9 membrane polyspecificity reagent, FACS + sequencing; frameworks hold sequencing errors
measurementLabel: polyreactivity (PSR sort gate)

QVQLVESGGGLVQAGGSLRLSCAASGRISASYAMGWYRQAPGKERELVAAITGSGGSTYYADSVKGRFTISRDNAKNTVYVQMNSLNPEDTAVYYCAADPGWAWWVLNYWVQGTQVTVSS
low polyreactivity
QVQLVESGGGLVQAGGSLRLSCAASGFTFSWYVMGWYRQAPGKERELVAAISSSGGSTYYADSVKGRFTISRDNAKNTVYLQMKSLKPEDTAVYYCSAGRPYGDGDYWGQGTQVTVSS
high polyreactivity
QFQLVESGGGLVQAGGILRLSCADSGSTFRWYAMGWYRKAPGKERELVASITYSGASTYYADSVKGRFTISRDNAKNTVYLQMISLKPEDTAVYYCNAVFWFSYVSEYDYWGQGTQVTVSS
high polyreactivity
QVQLVESGGGLVQAGGSLRLSCAASGRTFIYNVMGWYRQAPGKERELVAAISQRGGSTYYADSVKGRFTISRDNAKNTVYLQMNSLKPEDTAVYYCAAESYYKKWSDYWGQGTQVTVSS
high polyreactivity

Asked: What does the data say about its polyreactivity (PSR sort gate)? Entry: `QDQLVESGGGLVQAGGSLRLSCAASGRIFGLYAMGCYRPAPGKERELVAAYADSVKGRFTISRDNAKNTVYLQMNSLKPEDTAVYYCAKGPLYAGYSIHLRDFNYWGQGTQVTVSS`
Given back: low polyreactivity

###

Test: yeast display, Sf9 membrane polyspecificity reagent, FACS + sequencing; frameworks hold sequencing errors
measurementLabel: polyreactivity (PSR sort gate)

Answered examples (5):
QVQLVESGGGLVQAGGSLRLSCAASGRTFRANAMGWYRQAPGKERELFAAISKRGGNTYYADSVKGRFTISRDNAKNTVYLQMNSLKPEDTAVYYCADDFICRDYDYWGQGTQVTVSS
high polyreactivity
QVQLVESGGGLVQAGGSLRLSCAASGLIFVTNAMGGYRQAPGKERELVAAITRSGGSTYYADSVKGRFTISRDNAKNTVYLQMNSLKQEDTAVYYCATGFHYAYGYWGQGTQVTVSS
low polyreactivity
QVQLVESGGGLVLAGGRLRLSCAASGRTFYVYTMGWYRQAPGKEWELVAGISYSGGSTYYADSVMGRFTISRDNAKNTVYLQMNSLKPEDTAVYYCNAELYCPYFDGKTRHGGYWGQGTQVTVSS
low polyreactivity
QVKLVESGGGLVQAGGSLRLSCAASGFTFNGYGMGWYRQAPGKERELVAAISRSSGGTYYADSVKGRFTISRDNAKNTVYLQMNSLKPVDTAVYYCAATGYRTATPSWRYYYWGQGSQVTVSS
high polyreactivity
QVQLVESGGGLVQAGRSLRLSCAASGSILSINGMGWYRQAPGKERELVATIDGSEGSTFYADSVKGRFTISRDNAKNTFYLQLNSVKPEDTAVYYCAAENFWQTKEYDYWGQGKQVTVSS
low polyreactivity

Asked: What does the data say about its polyreactivity (PSR sort gate)? Entry: `QVQIVESGGGLVQAGGSLRLSFAASGRIFYNYALGWYRQAPGKERELVAAISGSGGSTYYADSVKGRFTISRDNAKNTVYLQMNSLKPEVTAVYYCSTSGPQYYSRNFDYWGQGTQVTVSS`
Given back: low polyreactivity

Asked: `QVQLVESGGGLVQAGGSLRLSCAASGRIFKYYAMGWYRQAPGKERELVAAITRNGGITYYADSVKGRFTISRDNAKNTVYLQMNSLKPEDTAVYYCAAGQRGRYSISSDEYNYWGQGTQVTVSS` , same question.
Given back: high polyreactivity

Asked: `QVQLVESGGGLVQAGGSLRLSCAASGFIFNWNTMGWYRQAPGKERELVATMTGSGGSTYADSVKGRFTISRDNAKNTVYLQMNSLKPEDTAVYYCAATRRSFHKYDYWGQGTQVTVSS` , same question.
Given back: low polyreactivity

Asked: `QVQLVESGGGLVQAGGRLRLSCAASGFTFSRNTLGWYRQAPGKERELVARITKRGGTTYYADSVKGRFTISRDNAKNTVYLQMNSLKPEDTAVYYCATVGQPSYRAPDGFNYWGQGTQVTVSS` , same question.
Given back: high polyreactivity

Asked: `QVQLVESGGGLVQAGGSLRLSCAASGLTLYDYAMGWYRQAPGKERELVADIDFNGGSTSYADSVKGRFTISRDNAKNTVYLQMNSLKPEDTAVYYCNTRDRGDVVTGLDYWGQGTQVTVSS` , same question.
Given back: low polyreactivity

Asked: `QVQLVESGGGLVQAGGSLRLSCAASGFIFGYNAMGWYRQAPGKERELVAAISSSGGSTYYADSVKGRFTISRDNAKNTVYLQMNSLKPEDTAVYYCAAESLTGYAHYDYWGQGTQVTVSS` , same question.
Given back: low polyreactivity

Asked: `QVQLVESGGGLVQAGGSLRLSCAASGSIFGWYAMGWYRQAPGKERELVAAISSSDGSTYYADSVKGRFTISRDNAKNTVYLQMNSLTPEDTAVYYCAKVYIRQNLAPYGYWGQGTQVTVSS` , same question.
Given back: low polyreactivity

Asked: `QVQLVESGGGLVQAGGSLRLICAASGRIFDPYAMGWYRQAPGKERELVASISWSGGRTYYADSVKGRFTISRDNAKNTVYLQMNSLKPEDTAVYYCAARQWYRYKVRFDYWGQGTQVTVSS` , same question.
Given back: high polyreactivity

Asked: `QVQLVESGGGLVQAGGSLRLSCAASGRIFQTYTMGWYRQAPGKERELVARITGGDSTYYADSVKGRFTISRDNAKITVYLQMNSLKPEDTAVYYCAAEVWSYWGTFNYWGQGTQVTVSS` , same question.
Given back: low polyreactivity

Asked: `QVQLVESGGGLVQAGGSLRLSCAASGSTFTSNAMGWYRQAPGKERELVAAISFSDASTYYADSVKGRFTISRDNAKNTVYLQMNSLKPEDTAVYYCAADSDQDAYDYWGQGTQVTVSS` , same question.
Given back: low polyreactivity

Asked: `QVQLQESGGGLVHAGGSLRLSCPASGTISFINMMGWYRQAPGRERELVASINFGANTNYADSVKGRFTISRDNAKNTVYLQLKSLKPEDTAVYYCAVYCAWTIGFTYWGQGTQVTVRS` , same question.
Given back: high polyreactivity

Asked: `QVQLVESGGGLVQAGGSLRLSSAASGSTSPRNAMGWYRQAPGKERELVAAISSGGRTNYADSVKGRFTISRDNAKNTVYFQMHSLKPEDTAVYYCAAVVHSTYWAQGTQVTVSS` , same question.
Given back: low polyreactivity

Asked: `QVQLVESGGGLVQAGGSLRLSCAASGRIFHGNAMGWYRQAPGKERELVARISSSGGGTYYADSVKGRFTISRDNAKNTVYLQMNSLKPEDTAVYYCAARRPDHTEVSNLRYDSWGQGTQVTVSS` , same question.
Given back: low polyreactivity

Asked: `QVQLVESGGGLLQAGGSLRLSCAASGRTLGIYAMGWYRQAPWKERELVAAITLSGSDTYYADSVKGRFTISRDNAKNTVYLQMNSLKPEDTAVYDCAAKTYGGYGKYGYWGQGTQVTVSS` , same question.
Given back: low polyreactivity

Asked: `QVQLVESVGGLVQAGGSLRLSCAASGSIFGYNAMGWYRQAPGKERELVAVINASGASTYYADSVKGRFTISRDNAKNTVYLQMNSLKPEDTAVYYCAKDPFPFPGGDDWGQGTQVTVSS` , same question.
Given back: low polyreactivity

Asked: `QVQLVESGGGLVQAGGSLRLSCAASGRIFRRNTMGWSRQAPGKERELVAAITSSGGSTYADSVKGRFTISRDNAKKTVYLQMNSLKPEDTAVYYCATYVAYHRGYRTYDHWGQGTQVTVSS` , same question.
Given back: low polyreactivity
